# Assay remarks: Induction of 2-Linoleoyl-1-palmitoyl-sn-phosphotidylcholine peroxidation in the presence of Ferrous sulphate after 24 hrs by LC/MS analysis
# Assay type: functional
The source made the active and inactive calls. The calls are words filed in the database; no cut-off is given here.
Readout: Activity

Task: Dear colleague, I am looking for the recorded Activity of the following molecule: CC(C)CN1CCN(C(=O)C[C@H]2CC[C@]3(CC2)OO[C@]2(O3)C3CC4CC(C3)CC2C4)CC1
Output: Active

Task: Repeat for the following molecule: CN1CCN(C2CCN(C(=O)C[C@H]3CC[C@]4(CC3)OO[C@]3(O4)C4CC5CC(C4)CC3C5)CC2)CC1
Output: Active

Task: Repeat for the following molecule: O=C(CC1CCC2(CC1)OOC1(OO2)C2CC3CC(C2)CC1C3)N1CCN(C2CCNCC2)CC1 (centres undefined)
Output: Active

Task: Repeat for the following molecule: CC(CN1CCNCC1)C(=O)CC1CCC2(CC1)OOC1(OO2)C2CC3CC(C2)CC1C3 (centres undefined)
Output: Active
